Target: BACE1 (Homo sapiens, UniProt P56817)
Construct: purchased Pan Vera Co. (Madison, WI, USA)
Sequence (P56817 46-501): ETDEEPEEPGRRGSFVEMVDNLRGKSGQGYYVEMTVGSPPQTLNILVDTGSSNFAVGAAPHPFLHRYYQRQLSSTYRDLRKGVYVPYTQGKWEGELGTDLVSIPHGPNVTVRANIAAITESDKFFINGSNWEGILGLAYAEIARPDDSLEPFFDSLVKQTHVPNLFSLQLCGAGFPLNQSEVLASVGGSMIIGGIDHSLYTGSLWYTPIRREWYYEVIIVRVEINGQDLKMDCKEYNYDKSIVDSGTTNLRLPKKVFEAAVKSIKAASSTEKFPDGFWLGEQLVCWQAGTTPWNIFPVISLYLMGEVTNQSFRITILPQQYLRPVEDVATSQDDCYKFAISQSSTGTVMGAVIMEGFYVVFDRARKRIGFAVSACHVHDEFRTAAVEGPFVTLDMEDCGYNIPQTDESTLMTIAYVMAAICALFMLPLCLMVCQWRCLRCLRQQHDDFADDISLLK
Assay: BACE1 enzyme kinetics (Dixon plot and Lineweaver plot)
Format: biochemical
Readout Kind: Inhibition type BACE1

Compound | Result
Cc1cc2c(c(C)c1CCO[C@@H]1OC(CO)[C@@H](O)[C@H](O)C1O)C(=O)[C@H](C)[C@H]2O (stereo partly drawn) [Compound 16, (2R,3R)-pteroside C] | mixed type
Cc1cc2c(c(C)c1CCO[C@@H]1OC(CO)[C@@H](O)[C@H](O)C1O)C(=O)[C@H](C)C2 (stereo partly drawn) [Compound 14, (2R)-pteroside B] | noncompetitive type
Cc1cc2c(c(C)c1CCO)C(=O)[C@@H](C)[C@H]2O | noncompetitive type
Cc1cc2c(c(C)c1CCO[C@@H]1OC(CO)[C@@H](O)[C@H](O)C1O)C(=O)C(C)(C)[C@H]2O (stereo partly drawn) [Compound 17, (3S)-pteroside D] | mixed type
Cc1cc2c(c(C)c1CCO)C(=O)[C@H](C)[C@H]2O | mixed type
Cc1cc2c(c(C)c1CCO)C(=O)[C@H](C)C2 | noncompetitive type
